Source listed as patent US20090004137A1.

test system: VERO cells; experiment: Cytotoxicity against VERO cells; format: cell-based
quantity_measured: CC50

## Task Indicate its recorded CC50; the compound in question is O=c1[nH]c(=O)n([C@@H]2O[C@H](CO)[C@@H](O)[C@H]2O)cc1/C(Cl)=C\I [Compound 16b, (E)-5-(l-Chloro-2-iodovinyl)-uridine]
## Result > 100 µM

###

Measured CC50, listed per entry for reference.
assay: Cytotoxicity against CEM cells; type: cell-based; settings: human

Use these answered entries as a reference point.
[
  {
    "compound": "O=c1[nH]c(=O)n([C@@H]2O[C@H](CO)[C@@H](O)[C@H]2O)cc1C#CI [Compound 12b, 5-(2-Iodoethynyl)-uridine]",
    "CC50": "> 100 µM"
  },
  {
    "compound": "O=c1[nH]c(=O)n([C@@H]2O[C@H](CO)C[C@H]2O)cc1C#CI [Compound 12c, 5-(2-Iodoethynyl)-3′-deoxyuridine]",
    "CC50": "> 100 µM"
  }
]

Consider the record given below.
## Task Return the recorded CC50 value; entry: O=c1[nH]c(=O)n([C@@H]2O[C@H](CO)[C@@H](O)[C@H]2O)cc1/C(Br)=C\Br [Compound 17b, (E)-5-(1,2-Dibromovinyl)-uridine]
## Result > 100 µM

###

test: Cytotoxicity against PBM cells; assay type: cell-based; conditions: human
quantity_measured: CC50

Known CC50 results, listed for orientation:
[
  {
    "compound": "O=c1[nH]c(=O)n([C@H]2C[C@H](O)[C@@H](CO)O2)cc1/C(Br)=C\\I [Compound 15a]",
    "reported": "13.3 µM"
  },
  {
    "compound": "O=c1[nH]c(=O)n([C@@H]2O[C@H](CO)C[C@H]2O)cc1/C(Br)=C\\I [Compound 15c]",
    "reported": "71.5 µM"
  },
  {
    "compound": "O=c1[nH]c(=O)n([C@@H]2O[C@H](CO)C[C@H]2O)cc1/C(Cl)=C\\I [Compound 16c]",
    "reported": "94.4 µM"
  }
]

## Task Give the value of CC50 reported for the following: O=c1[nH]c(=O)n([C@@H]2O[C@H](CO)[C@@H](O)[C@H]2O)cc1C#CI [Compound 12b, 5-(2-Iodoethynyl)-uridine]
## Result > 100 µM

## Task For the compound O=c1[nH]c(=O)n([C@@H]2O[C@H](CO)[C@@H](O)[C@H]2O)cc1/C(I)=C\I [Compound 14b, (E)-5-(1,2-Diiodovinyl)-uridine] , report CC50.
## Result > 100 µM

## Task Provide only the value of recorded CC50 for O=c1[nH]c(=O)n([C@@H]2O[C@H](CO)[C@@H](O)[C@H]2O)cc1/C(Br)=C\Br [Compound 17b, (E)-5-(1,2-Dibromovinyl)-uridine]
## Result > 100 µM

## Task Please indicate CC50 recorded for O=c1[nH]c(=O)n([C@@H]2O[C@H](CO)[C@@H](O)[C@H]2O)cc1C#CBr [Compound 13b, 5-(2-bromoethynyl)-uridine]
## Result > 100 µM

## Task Give CC50 for the following compound: O=c1[nH]c(=O)n([C@H]2C[C@H](O)[C@@H](CO)O2)cc1/C(Br)=C\Br [Compound 17a, (E)-5-(1,2-Dibromovinyl)-2′-deoxyuridine]
## Result > 100 µM

## Task Determine its reported CC50: O=c1[nH]c(=O)n([C@H]2C[C@H](O)[C@@H](CO)O2)cc1/C(I)=C\I [Compound 14a, (E)-5-(1,2-Diiodovinyl)-2′-deoxyuridine]
## Result 14.7 µM

## Task Give the reported CC50 for this compound. O=c1[nH]c(=O)n([C@H]2C[C@H](O)[C@@H](CO)O2)cc1C#CI [Compound 12a, 5-(2-Iodoethynyl)-2′-deoxyuridine]
## Result 7.5 µM

## Task Annotate the compound O=c1[nH]c(=O)n([C@@H]2O[C@H](CO)C[C@H]2O)cc1C#CI [Compound 12c, 5-(2-Iodoethynyl)-3′-deoxyuridine] with its measured CC50.
## Result > 100 µM

## Task Supply CC50 value. Item: O=c1[nH]c(=O)n([C@H]2C[C@H](O)[C@@H](CO)O2)cc1/C(Cl)=C\I [Compound 16a]
## Result 3.2 µM

## Task Kindly indicate its recorded CC50. Item: O=c1[nH]c(=O)n([C@@H]2O[C@H](CO)C[C@H]2O)cc1C#CBr [Compound 13c, 5-(2-Bromoethynyl)-3′-deoxyuridine]
## Result > 100 µM

## Task Write down CC50 measured for item O=c1[nH]c(=O)n([C@@H]2O[C@H](CO)[C@@H](O)[C@H]2O)cc1/C(Br)=C\I [Compound 15b, (E)-5-(1-Bromo-2-iodovinyl)-uridine]
## Result > 100 µM
